Value source: ChEMBL document CHEMBL5442219

molecular target: 5-hydroxytryptamine receptor 3A (Homo sapiens); conditions: Compound concentration 10 µM
Description: PDSP Primary Binding target: HTR3A - Compounds are tested at 10 uM concentration, plate are incubated at room temperature in the dark for 90 minutes. Reaction are stopped by vacuum filtration onto 0.3% polyethyleneimine soaked filter mats using Filtermate harvester. Scintilation cocktail is then melted onto microwave-dried filters on a hot plate and the radio activity is counted in Microbia counter.
Measured inhibition of individual entries
Could you give me the number in %? Just the number is fine.

C/C(=N\NC(=O)[C@@H]1C(=O)NC[C@H]1c1ccccc1)c1cccc(Br)c1: -4.26
N#Cc1ccc(NC(=O)Nc2ccccc2Br)c2nn[nH]c12: 4.92
Cc1ccccc1N1CCN(S(=O)(=O)C[C@]23CC[C@H](C[C@@H]2NC(=O)[C@@H](N)CCS(C)(=O)=O)C3(C)C)CC1: -6.48

Input: Would you mind telling me what inhibition value was observed for Cc1cccc([C@H](C)c2c[nH]cn2)c1C ?
Output: 13.3

Input: Would you mind telling me what inhibition value was observed for NC(=O)[C@@H]1CCCN1C(=O)[C@H](Cc1c[nH]cn1)NC(=O)[C@@H]1CCC(=O)N1 ?
Output: 8.73

Input: Would you mind telling me what inhibition value was observed for CCC(=O)NCC[C@@H]1CCc2ccc3c(c21)CCO3 ?
Output: 6.73

Input: Would you mind telling me what inhibition value was observed for CN(C(=O)Cc1ccc(Cl)c(Cl)c1)C(CN1CCCC1)c1cccc(OCC(=O)O)c1 (stereo not drawn) ?
Output: 7.24

Input: Would you mind telling me what inhibition value was observed for COc1ccccc1N1CCN(CCCCNC(=O)c2ccc3ccccc3c2)CC1 ?
Output: 0.02

Input: Would you mind telling me what inhibition value was observed for COc1ccc(/C=C/CCCCOc2ccc(C(=O)c3cccc(C(=O)O)c3)cc2CCC(=O)O)cc1 ?
Output: -4.61

Input: Would you mind telling me what inhibition value was observed for Cc1ccccc1C(=O)Nc1ccc(C(=O)N2CCCC(O)c3cc(Cl)ccc32)c(C)c1 (stereo not drawn) ?
Output: -5.18

Input: Would you mind telling me what inhibition value was observed for COc1cc(-n2cnc3cc(-c4ccc(Cl)cc4)sc3c2=O)ccc1OCCN1CCCC1 ?
Output: 22.5

Input: Would you mind telling me what inhibition value was observed for O=C(O)c1cc(-c2ccc(C3CCNCC3)cc2)c2ccc(-c3ccc(C(F)(F)F)cc3)cc2c1 ?
Output: 21.6

Input: Would you mind telling me what inhibition value was observed for Cc1c(C2=CCN(C(=O)N(C)C(C)C)CC2)nnn1-c1cccnc1F ?
Output: 8.19

###

target: Kappa-type opioid receptor (Homo sapiens); conditions: Compound concentration 10 µM; call rule not given here
Hi there, use one of these labels in your reply, thanks! active, inactive

COc1cc(-n2cnc3cc(-c4ccc(Cl)cc4)sc3c2=O)ccc1OCCN1CCCC1: inactive
Cc1cc(NC(=O)Nc2ccc(N(C)C)cc2)c2cc(F)cc(F)c2n1: inactive
CCCSc1nc(N[C@@H]2C[C@H]2c2ccc(F)c(F)c2)c2nnn([C@@H]3C[C@H](OCCO)[C@@H](O)[C@H]3O)c2n1: inactive

Input: Assay outcome for Cc1nc2sccn2c(=O)c1CCN1CCC(=C(c2ccc(F)cc2)c2ccc(F)cc2)CC1 : what was it?
Output: active

###

target: 5-hydroxytryptamine receptor 5A (Homo sapiens) (UniProt P47898); conditions: Compound concentration 10 µM
Sequence (P47898 whole entry): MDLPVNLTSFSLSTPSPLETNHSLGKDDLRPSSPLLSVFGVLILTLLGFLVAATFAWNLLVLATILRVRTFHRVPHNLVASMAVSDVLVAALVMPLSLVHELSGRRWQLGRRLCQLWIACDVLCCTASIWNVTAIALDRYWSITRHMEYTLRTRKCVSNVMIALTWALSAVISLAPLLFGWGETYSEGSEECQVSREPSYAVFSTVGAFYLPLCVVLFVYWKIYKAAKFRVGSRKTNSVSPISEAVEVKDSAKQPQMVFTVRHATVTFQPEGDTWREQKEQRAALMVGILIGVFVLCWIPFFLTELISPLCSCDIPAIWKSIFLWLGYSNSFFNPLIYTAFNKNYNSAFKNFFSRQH
Description: PDSP Primary Binding target: HTR5A - Compounds are tested at 10 uM concentration, plate are incubated at room temperature in the dark for 90 minutes. Reaction are stopped by vacuum filtration onto 0.3% polyethyleneimine soaked filter mats using Filtermate harvester. Scintilation cocktail is then melted onto microwave-dried filters on a hot plate and the radio activity is counted in Microbia counter.
OBSERVATION TYPE: inhibition (%)
Could you give me the number in %? Just the number is fine.

A selection of reference data follows.
COC1CCN(c2cccc(-c3cc(NC(C)=O)nc(-n4nc(C)cc4C)n3)n2)CC1: -1.72
COC(=O)[C@H]1[C@H]2C[C@H]3c4[nH]c5ccccc5c4CCN3C[C@H]2CC[C@@H]1O: 48.2

Input: Would you mind telling me what inhibition value was observed for CNC[C@H](O)c1cccc(O)c1 ?
Output: 26.3

Input: Would you mind telling me what inhibition value was observed for CN1CCN(c2ccc(Nc3c4ccccc4nc4ccccc34)cc2)CC1 ?
Output: 20.3

Input: Would you mind telling me what inhibition value was observed for COc1ccnc(N2CCC3(CCCN(Cc4c[nH]c5ccccc45)C3=O)CC2)n1 ?
Output: -9.26

Input: Would you mind telling me what inhibition value was observed for COc1ccc(NC(=O)c2ccc(-c3ccc(-c4noc(C)n4)cc3C)cc2)cc1OCCN(C)C ?
Output: 65.6

Input: Would you mind telling me what inhibition value was observed for COc1ccc(NS(=O)(=O)c2sc3ccc(Cl)cc3c2C)cc1N1CCNCC1 ?
Output: 58.1

Input: Would you mind telling me what inhibition value was observed for S=C(NCCCc1c[nH]cn1)NCCCN(Cc1ccc(Cl)c(Cl)c1)c1ccc(Br)cn1 ?
Output: 96.7

Input: Would you mind telling me what inhibition value was observed for N#Cc1ccc2[nH]cc(CCCCN3CCN(c4ccc5oc(C(N)=O)cc5c4)CC3)c2c1 ?
Output: 40.6

Input: Would you mind telling me what inhibition value was observed for Cc1cc([C@@H](C)Nc2cccc(-c3cc(C)c(C(=O)N[C@@H](C)C(=O)O)c(C)c3)c2)ccc1Cl ?
Output: 11.6

Input: Would you mind telling me what inhibition value was observed for C/C(=N\NC(=O)[C@@H]1C(=O)NC[C@H]1c1ccccc1)c1cccc(Br)c1 ?
Output: 18.8

Input: Would you mind telling me what inhibition value was observed for Cc1csc(NC(=O)c2cc(F)cc(Oc3cncnc3)c2)n1 ?
Output: -6.54

Input: Would you mind telling me what inhibition value was observed for c1nc(CC2CCNCC2)c[nH]1 ?
Output: -4.49

Input: Would you mind telling me what inhibition value was observed for Cc1cccc([C@H](C)c2c[nH]cn2)c1C ?
Output: -0.76

Input: Would you mind telling me what inhibition value was observed for CN(C(=O)Cc1ccc(Cl)c(Cl)c1)C(CN1CCCC1)c1cccc(OCC(=O)O)c1 (stereo unspecified) ?
Output: 1.89

Input: Would you mind telling me what inhibition value was observed for CCc1cc(C(C)=O)c(O)cc1OCCCCCC(C)(C)c1nn[nH]n1 ?
Output: 8.4

###

biological target: 5-hydroxytryptamine receptor 1A (Homo sapiens); conditions: Compound concentration 10 µM; call rule not given here
Hi there, use one of these labels in your reply, thanks! yes (1) for active, no (0) for inactive

Look over these answered cases.
Cc1nnn(-c2ccc(-c3ccc(C4(C(=O)O)CC4)cc3)cc2)c1NC(=O)O[C@H](C)c1ccccc1: no (0)
N#Cc1c(O)nc(SCc2cccc(F)c2F)nc1C1CC1: no (0)

Input: Assay outcome for COc1ccc(CNC(=O)c2cc(-c3cncc(Cl)c3)cnc2-c2ccccn2)nc1OC : what was it?
Output: no (0)

Input: Assay outcome for N#Cc1ccc(NC(=O)Nc2ccccc2Br)c2nn[nH]c12 : what was it?
Output: no (0)

Input: Assay outcome for Cc1cc(C)cc(C(=O)N(C)[C@H](Cc2ccc(-c3ccccc3)cc2)C(=O)N[C@@H](Cc2c[nH]c3ccccc23)C(=O)O)c1 : what was it?
Output: no (0)

###

biological target: Sodium-dependent dopamine transporter (Homo sapiens) (UniProt Q01959); conditions: Compound concentration 10 µM
Sequence (Q01959 whole entry): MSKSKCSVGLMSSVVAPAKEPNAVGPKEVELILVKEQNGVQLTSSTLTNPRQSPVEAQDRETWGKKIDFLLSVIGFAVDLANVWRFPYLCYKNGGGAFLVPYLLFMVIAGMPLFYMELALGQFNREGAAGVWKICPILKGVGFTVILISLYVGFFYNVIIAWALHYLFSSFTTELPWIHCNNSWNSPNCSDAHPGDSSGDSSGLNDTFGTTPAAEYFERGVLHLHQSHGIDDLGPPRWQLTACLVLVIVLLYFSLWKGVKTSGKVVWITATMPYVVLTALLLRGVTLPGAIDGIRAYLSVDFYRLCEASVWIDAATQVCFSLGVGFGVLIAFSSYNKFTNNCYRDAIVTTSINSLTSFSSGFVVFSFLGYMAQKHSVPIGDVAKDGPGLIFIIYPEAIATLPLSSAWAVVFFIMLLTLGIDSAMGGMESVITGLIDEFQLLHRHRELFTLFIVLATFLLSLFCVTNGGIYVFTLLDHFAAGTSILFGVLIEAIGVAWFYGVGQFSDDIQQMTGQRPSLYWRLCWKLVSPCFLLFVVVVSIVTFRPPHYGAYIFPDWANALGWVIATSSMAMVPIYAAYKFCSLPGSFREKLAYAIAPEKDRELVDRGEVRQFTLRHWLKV
Description: PDSP Primary Binding target: SLC6A3 - Compounds are tested at 10 uM concentration, plate are incubated at room temperature in the dark for 90 minutes. Reaction are stopped by vacuum filtration onto 0.3% polyethyleneimine soaked filter mats using Filtermate harvester. Scintilation cocktail is then melted onto microwave-dried filters on a hot plate and the radio activity is counted in Microbia counter.
Measured inhibition of individual entries

OC[C@H]1O[C@@H](n2cnc3c(NC4CCCC4)ncnc32)[C@H](O)[C@@H]1O: 36.9%

Note: attention shifts to another entry.
Input: Record lookup: for Sodium-dependent dopamine transporter (Homo sapiens) (UniProt Q01959), what inhibition belongs to CCCn1c(=O)c2nc(C34CC5CC(CC3C5)C4)[nH]c2n(CCC)c1=O ?
Output: 50%

###

biological target: 5-hydroxytryptamine receptor 1E (Homo sapiens) (UniProt P28566); settings: Compound concentration 10 µM; call rule not given here
Sequence (P28566 whole entry): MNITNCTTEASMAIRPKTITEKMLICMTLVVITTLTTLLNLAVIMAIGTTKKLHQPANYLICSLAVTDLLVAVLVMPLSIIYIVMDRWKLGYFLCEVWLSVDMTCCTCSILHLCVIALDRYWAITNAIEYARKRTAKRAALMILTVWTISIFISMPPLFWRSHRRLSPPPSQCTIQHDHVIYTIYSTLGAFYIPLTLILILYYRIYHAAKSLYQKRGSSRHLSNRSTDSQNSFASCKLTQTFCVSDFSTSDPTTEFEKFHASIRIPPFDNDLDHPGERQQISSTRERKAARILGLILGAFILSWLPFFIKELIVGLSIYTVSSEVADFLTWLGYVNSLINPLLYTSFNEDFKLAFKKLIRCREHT
Hi there, use one of these labels in your reply, thanks! 1.0 (active), 0.0 (inactive)

N#Cc1c[nH]c2c(C(=O)N3CCN(CCc4ccc(F)cc4)CC3)cccc12: 0.0
O=S1(=O)c2cccc3cccc(c23)N1CCCN1CCN(c2ccc(F)cc2)CC1: 0.0
Cc1cc([C@@H](C)Nc2cccc(-c3cc(C)c(C(=O)N[C@@H](C)C(=O)O)c(C)c3)c2)ccc1Cl: 0.0

Input: Assay outcome for CCCNS(=O)(=O)Nc1ncnc(OCCOc2ncc(Br)cn2)c1-c1ccc(Br)cc1 : what was it?
Output: 0.0

Input: Assay outcome for COc1cccc(-c2c(C)n(Cc3c(F)cccc3C(F)(F)F)c(=O)n(C[C@H](NCCCC(=O)O)c3ccccc3)c2=O)c1F : what was it?
Output: 0.0

Input: Assay outcome for Cc1nc(-c2ccc(C(F)(F)F)cc2)sc1COc1ccc([C@H](CC(=O)O)c2ccon2)cc1 : what was it?
Output: 0.0

Input: Assay outcome for C[C@H](Cc1cc2c(c(C(N)=O)c1)N(CCCO)CC2)NCCOc1ccccc1OCC(F)(F)F : what was it?
Output: 0.0

Input: Assay outcome for O=C(O)Cn1c(C(=O)Nc2nc(-c3ccccc3Cl)cs2)cc2ccccc21 : what was it?
Output: 0.0

Input: Assay outcome for C=CCN1C[C@H](C)N([C@H](c2ccc(C(=O)N(CC)CC)cc2)c2cccc(O)c2)C[C@H]1C : what was it?
Output: 0.0

Input: Assay outcome for CCCCN1CCC(COC(=O)c2cc(Cl)c(N)c3c2OCCO3)CC1 : what was it?
Output: 0.0

Input: Assay outcome for O=c1ccc2ccc(OCCCCN3CCN(c4cccc5sccc45)CC3)cc2[nH]1 : what was it?
Output: 1.0

Input: Assay outcome for Cc1c(OCc2cccc(-c3ccc(C(=O)O)cc3)c2)cc2c(c1C)C(=O)C(C1CCCC1)C2 (configuration not stated) : what was it?
Output: 0.0
